molecular target: CETP (Homo sapiens, UniProt P11597); test: In vitro CETP activity inhibitory effect in whole plasma; settings: plasma from healthy subjects containing [3H]CE-HDL3, incubated 4 hours at 37° C.; read-out: CETP activity inhibition in whole plasma IC50
Sequence (P11597 18-493): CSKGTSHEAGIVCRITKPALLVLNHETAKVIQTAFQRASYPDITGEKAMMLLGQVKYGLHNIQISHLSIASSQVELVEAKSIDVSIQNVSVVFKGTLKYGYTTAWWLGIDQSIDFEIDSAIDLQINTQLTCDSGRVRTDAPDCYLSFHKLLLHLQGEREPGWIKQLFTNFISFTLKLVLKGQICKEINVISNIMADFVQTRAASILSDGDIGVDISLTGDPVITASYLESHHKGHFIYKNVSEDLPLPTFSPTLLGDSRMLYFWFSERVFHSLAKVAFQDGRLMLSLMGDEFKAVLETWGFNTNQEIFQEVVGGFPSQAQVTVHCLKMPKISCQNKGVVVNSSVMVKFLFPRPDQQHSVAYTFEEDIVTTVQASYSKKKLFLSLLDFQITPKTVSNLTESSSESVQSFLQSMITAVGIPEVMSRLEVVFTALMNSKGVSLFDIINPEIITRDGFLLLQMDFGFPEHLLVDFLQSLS
pIC50: −log10 of the molar value.
Give Fulfilled when the value for pIC50 is at least 5. Give Not fulfilled when it is less.

Examples from the recorded data:
CC(=O)N[C@H](Cc1ccccc1)C(=O)Sc1cc(Cl)c(Cl)cc1NC(=O)C1(C)CCCCC1 [Example 66-11] = Not fulfilled
CC1(C(=O)Nc2ccccc2SC(=O)[C@H](NC(=O)c2ccccc2)c2ccccc2)CCCCC1 [Example 25-40] = Not fulfilled
CC1(C(=O)Nc2ccccc2SC(=O)Cc2ccccc2Cl)CCCCC1 [Example 25-23] = Not fulfilled
CC1(C(=O)Nc2cc(C(F)(F)F)ccc2SC(=O)Sc2ccccc2)CCCCC1 [Example 25-93] = Not fulfilled
CCC(=O)Sc1ccccc1NC(=O)C1(CCC(C)C)CCCCC1 [Example 38] = Fulfilled

Lab note: next compound to report on.
Q. Hi team, for CC(C)CCC1(C(=O)Nc2ccccc2SC(=O)N(C(=O)Nc2ccccc2)c2ccccc2)CCCCC1 [Example 25-101] , is the recorded pIC50 at or above 5?
A. Fulfilled

====

biological target: CETP (Homo sapiens, UniProt P11597); assay: Ex vivo CETP activity inhibitory effect of plasma from transgenic mice; set-up: from tissue; host or cells: plasma of transgenic mice carrying the human CETP gene; conditions: mouse, po; 30 mg/kg, p.o.; 6 hours after administration; transgenic mice with human CETP gene; read-out: CETP activity inhibitory rate in plasma from transgenic mouse
Each entry falls in a class defined on inhibition at 30 mg/kg; the bands are bucket A: < 10%; bucket B: ≥ 10% and < 40%; bucket C: ≥ 40%

Examples from the recorded data:
Cc1ccc(NC(=O)C2(CCC(C)C)CCCCC2)c(S)c1 = bucket B
CC(C)CCC1(C(=O)Nc2cc(Cl)ccc2SC(=O)C(C)(C)C)CCCCC1 = bucket A

Q. Exam item: assign CC(=O)N[C@@H](CCC(N)=O)C(=O)Sc1ccccc1NC(=O)C1(CCC(C)C)CCCCC1 to the correct category.
A. bucket B

Q. How about this compound: CCC(CC)CC1(C(=O)Nc2ccccc2SC(=O)C(C)C)CCCCC1
A. bucket C

Q. How about this compound: CC(C)CCC1(C(=O)Nc2ccccc2SC(=O)C2(N)CCCCC2)CCCCC1
A. bucket B

Q. How about this compound: CC(C)CCC1(C(=O)Nc2cc(C(F)(F)F)ccc2SC(=O)C(C)(C)C)CCCCC1
A. bucket A

Q. How about this compound: COc1ccc(SC(=O)C(C)(C)C)c(NC(=O)C2(CCC(C)C)CCCCC2)c1
A. bucket B

Q. How about this compound: CC(=O)Sc1ccccc1NC(=O)C1(CCC(C)C)CCCC1
A. bucket B

Q. How about this compound: CC(C)CCC1(C(=O)Nc2ccccc2SC(=O)CCl)CCCCC1
A. bucket B

Q. How about this compound: COCC(=O)Sc1ccccc1NC(=O)C1(CCC(C)C)CCCCC1
A. bucket C

Q. How about this compound: Cc1cccc(NC(=O)C2(CCC(C)C)CCCCC2)c1S
A. bucket B

Q. How about this compound: CC(C)CCC1(C(=O)Nc2ccccc2SC(=O)C(C)C)CCCCC1
A. bucket C

Q. How about this compound: CC(C)CCC1(C(=O)Nc2ccccc2SC(=O)N(C(=O)Nc2ccccc2)c2ccccc2)CCCCC1
A. bucket A

Q. How about this compound: CC(C)CCC1(C(=O)Nc2cc([N+](=O)[O-])ccc2SC(=O)C(C)(C)C)CCCCC1
A. bucket A

Q. How about this compound: CCC(CC)CC1(C(=O)Nc2ccccc2SC(=O)C2CCN(C(C)=O)CC2)CCCCC1
A. bucket B

Q. How about this compound: CC(C)CCC1(C(=O)Nc2ccccc2SC(=O)/C=C/c2ccccc2)CCCCC1
A. bucket B
